- ASSAY OVERVIEW: in vitro
- CONDITION LABEL: human, hela cells, % viability
Below, each entry is listed alongside its reported viability at 28.5 h, 10 µM.

COMPOUND: COc1cccc(OCC(=O)Nc2ccc(Cl)cc2C(=O)O)c1 [CBK264208]
viability at 28.5 h, 10 µM: 105%
--
COMPOUND: CC(C)(Oc1cccc2ccccc12)C(=O)O [CBK012409]
viability at 28.5 h, 10 µM: 94.5%
--
COMPOUND: O=C(NCCCN1CCN(Cc2ccccc2)CC1)c1cn2cc(C(F)(F)F)cc(Cl)c2n1 [CBK074654]
viability at 28.5 h, 10 µM: 89.3%
--
COMPOUND: COc1ncc(-c2cnc3[nH]c(=O)n(C4CC4)c3n2)cn1 [CBK064908]
viability at 28.5 h, 10 µM: 89.1%
--
COMPOUND: Cc1cccc2sc(NC(=O)c3ccccc3)nc12 [CBK287300]
viability at 28.5 h, 10 µM: 102%
--
COMPOUND: COc1ccc2nc(N/C(N)=N/C(=O)COc3ccc(Cl)cc3)nc(C)c2c1 [CBK263924]
viability at 28.5 h, 10 µM: 95%
--
COMPOUND: CSc1cccc(CN(C)C(=O)c2cc(C#N)c(=O)[nH]c2C)c1 [CBK306839]
viability at 28.5 h, 10 µM: 93%
--
COMPOUND: Cc1ccnc2nc(C(=O)OCC(=O)Nc3ccc4c(c3)CCC4)nn12 [CBK305853]
viability at 28.5 h, 10 µM: 82.1%
--
COMPOUND: O=C(O)CC(NC(=O)C(c1ccccc1)c1ccccc1)c1ccco1 (stereo not shown) [CBK268729]
viability at 28.5 h, 10 µM: 109%
--
COMPOUND: Cn1c(=O)n(CC(N)=O)c(=O)c2c1nc1oc(C(C)(C)C)cn12 [CBK306081]
viability at 28.5 h, 10 µM: 96.5%
--
COMPOUND: CC(NC(=O)CSc1nnc(-c2ccc(Cl)cc2)n1-c1ccccc1)c1ccccc1 (stereo not shown) [CBK264993]
viability at 28.5 h, 10 µM: 87%
--
COMPOUND: COc1ccc(-c2nc(-c3cccc(F)c3)cnc2N)cc1OC [CBK063948]
viability at 28.5 h, 10 µM: 98.4%
--
COMPOUND: Cc1cc(C)cc(C(=O)N2CCCC(C(=O)N3CCN(c4nccs4)CC3)C2)c1 (stereo not shown) [CBK298307]
viability at 28.5 h, 10 µM: 95.1%
--
COMPOUND: O=C1CC(N2CCC(c3nc4ccccc4o3)CC2)C(=O)N1Cc1cccs1 (stereo not shown) [CBK268735]
viability at 28.5 h, 10 µM: 104%
--
COMPOUND: COc1ccc(OC)c(NC(=O)CN2CCN(c3ccccn3)CC2)c1 [CBK262978]
viability at 28.5 h, 10 µM: 83.7%
--
COMPOUND: N=C(N)NS(=O)(=O)c1ccc(N/C=C\C(=O)c2ccc3ccccc3c2)cc1 [CBK263374]
viability at 28.5 h, 10 µM: 98.6%
--
COMPOUND: COc1ccc([C@@]23CC[C@H](NC(=O)Nc4ccc(F)c(F)c4)C[C@@H]2N(Cc2ccccc2)CC3)cc1OC [CBK041333T]
viability at 28.5 h, 10 µM: 94.5%
--
COMPOUND: CCOc1ccc2nc(SCc3nc(N)nc(Nc4cccc(Cl)c4C)n3)sc2c1 [CBK265202]
viability at 28.5 h, 10 µM: 83.1%
--
COMPOUND: Clc1ccc(SCCCNCCN2CCOCC2)cc1 [CBK268603C]
viability at 28.5 h, 10 µM: 90.3%
--
COMPOUND: O=C(N[C@@H](Cc1ccc(OCc2ccc(Cl)cc2Cl)cc1)C(=O)O)C1CCCC1 [CBK017610]
viability at 28.5 h, 10 µM: 82.9%
--
COMPOUND: COc1cc(Nc2nc(-c3cccc(NC(C)=O)c3)cn3ccnc23)cc(OC)c1OC [CBK038093]
viability at 28.5 h, 10 µM: 99.7%
--
COMPOUND: CC(=O)Nc1cccc(-c2cncc(NCCc3ccccn3)n2)c1 [CBK065359]
viability at 28.5 h, 10 µM: 103%
--
COMPOUND: COc1ccc(-n2c(C)c([N+](=O)[O-])c3ccc(O)c(CNCCCO)c32)cc1 [CBK263504C]
viability at 28.5 h, 10 µM: 88.4%
--
COMPOUND: CC(C)n1c(=O)n(CC(=O)NCc2ccccc2)c2cccnc21 [CBK283758]
viability at 28.5 h, 10 µM: 99.8%
--
COMPOUND: CS(=O)(=O)N1CCc2cc(S(=O)(=O)N3CCN(c4ccc([N+](=O)[O-])c(NCc5ccccc5)c4)CC3)ccc21 [CBK268311]
viability at 28.5 h, 10 µM: 102%
--
COMPOUND: Cc1c(C(=O)O)sc(S(=O)(=O)N2CCN(C(=O)Cc3ccsc3)CC2)c1C(=O)O [CBK297134]
viability at 28.5 h, 10 µM: 89.8%
--
COMPOUND: O=C1N(CN2CCN(C(c3ccccc3)c3ccccc3)CC2)c2ccccc2C12OCCCO2 [CBK265538]
viability at 28.5 h, 10 µM: 85.6%
--
COMPOUND: Cc1ccc(S(N)(=O)=O)cc1CNC(=O)Nc1cccc(F)c1 [CBK093516]
viability at 28.5 h, 10 µM: 83.9%
--
COMPOUND: CCCn1cnc2cc(NC(=O)Cn3cccc(C(=O)NC4CCCCC4)c3=O)ccc21 [CBK286075]
viability at 28.5 h, 10 µM: 93%
--
COMPOUND: O=C(N/N=C/c1cc(O)c(Br)cc1Br)c1ccncc1 [CBK262297]
viability at 28.5 h, 10 µM: 76.8%
--
COMPOUND: O=c1oc(-c2ccncc2)nn1Cc1ccccc1F [CBK283692]
viability at 28.5 h, 10 µM: 89.1%
--
COMPOUND: C[C@@H]1CN(Cc2ccccc2)C[C@H](C)N1 [CBK001569]
viability at 28.5 h, 10 µM: 86.1%
--
COMPOUND: CC(C)(C)OC(=O)Nc1ccc(Nc2cc(-c3ccc(F)c(F)c3)ncn2)cc1 [CBK091143]
viability at 28.5 h, 10 µM: 90.1%
--
COMPOUND: Cc1nonc1OCCN1CCN(c2cc3c(cc2[N+](=O)[O-])n(C)c(=O)n3C)CC1 [CBK267676]
viability at 28.5 h, 10 µM: 104%
--
COMPOUND: CCn1c(C(C)Oc2ccc(Cl)cc2)n[nH]c1=S (stereo not shown) [CBK015099]
viability at 28.5 h, 10 µM: 108%
--
COMPOUND: CCN(CC)C(=O)C1CCCN(C(=O)NCCc2c[nH]cn2)C1 (stereo not shown) [CBK156124]
viability at 28.5 h, 10 µM: 96.9%
--
COMPOUND: CCOC(=O)c1ccc(-n2sc3ccccc3c2=O)cc1 [CBK115552]
viability at 28.5 h, 10 µM: 99.1%
